Values from patent US20240270762A1

Tested on: N. gonorrhoeae WHO X
Assay: Liquid broth MIC in Fastidious broth
Conditions: Neisseria gonorrhoeae, read-out: Minimum Inhibitory Concentration (MIC), N. gonorrhoeae WHO X
Consider the following molecules; for each one, report its MIC.

Entry O=C(O)c1cccc2c1OB(O)[C@@H](NC(=O)[C@H](NC(=O)c1ccn[nH]c1=O)c1ccc(P(=O)(O)O)cc1)C2 (single isomer, unassigned) ; MIC = 4 to 8 µg/mL

Entry CCN1CCN(C(=O)NC(C(=O)N[C@H]2Cc3cccc(C(=O)O)c3OB2O)c2ccc(P(=O)(O)O)c(O)c2)C(=O)C1=O (stereo partly drawn) ; MIC = < 1 µg/mL

Entry `CS(=O)(=O)N1CCC[C@H]1C(=O)N[C@@H](C(=O)N[C@H]1Cc2cccc(C(=O)O)c2OB1O)c1ccc(P(=O)(O)O)cc1` ; MIC = 16 to 32 µg/mL

Entry O=C(NCCN1CCN(C(=O)NC(C(=O)N[C@H]2Cc3ccc(F)c(C(=O)O)c3OB2O)c2cc(F)c(O)c(O)c2Cl)C(=O)C1=O)c1ccc(O)cc1 (stereo partly drawn) ; MIC = > 64 µg/mL

Entry O=C(O)c1cccc2c1OB(O)[C@@H](NC(=O)C(NC(=O)N1CCN(Cc3ccc(O)c(O)c3Cl)C(=O)C1=O)c1ccc(P(=O)(O)O)cc1)C2 (stereo partly drawn) ; MIC = 16 to 32 µg/mL

Entry `CN(CCN1CCN(C(=O)N[C@@H](C(=O)N[C@H]2Cc3ccc(F)c(C(=O)O)c3OB2O)c2cc(F)c(O)c(O)c2Cl)C(=O)C1=O)Cc1cncc(O)c1` ; MIC = > 64 µg/mL

###

Test system: A. baumannii 1258916
Assay: microbe, parasite or virus in culture
Assay type: cell-based, Acinetobacter baumannii
Conditions: Acinetobacter baumannii, 1258916, read-out: MIC, A. baumannii 1258916
Consider the following compounds; for each one, report its MIC.

Entry O=C(O)c1c(F)ccc2c1OB(O)[C@@H](NC(=O)C(NC(=O)N1CCN(Cc3ccc(O)c(O)c3Cl)C(=O)C1=O)c1ccc(P(=O)(O)O)c(F)c1)C2 (stereo partly drawn) ; MIC = < 1 µg/mL

Entry `O=C(NCCCN1CCN(C(=O)N[C@H](C(=O)N[C@H]2Cc3ccc(F)c(C(=O)O)c3OB2O)c2cc(F)c(O)c(O)c2Cl)C(=O)C1=O)c1cccc(O)c1Cl` ; MIC = > 128 µg/mL

Entry O=C(NCCN1CCN(C(=O)NC(C(=O)N[C@H]2Cc3ccc(F)c(C(=O)O)c3OB2O)c2cc(F)c(O)c(O)c2Cl)C1=O)c1ccccc1 (stereo partly drawn) ; MIC = < 1 µg/mL

###

Tested on: N. gonorrhoeae WHO Q
Experiment: Liquid broth MIC in Fastidious broth
Conditions: Neisseria gonorrhoeae, read-out: Minimum Inhibitory Concentration (MIC), N. gonorrhoeae WHO Q
ATTRIBUTE_MEASURED: MIC

Query CCC(=O)NC(C(=O)N[C@H]1Cc2cccc(C(=O)O)c2OB1O)c1ccc(P(=O)(O)O)cc1 (stereo partly drawn) on N. gonorrhoeae WHO Q; MIC returned: 16 to 32 µg/mL

Query O=C(NCCN1CCN(C(=O)NC(C(=O)N[C@H]2Cc3ccc(F)c(C(=O)O)c3OB2O)c2cc(F)c(O)c(O)c2Cl)C(=O)C1=O)c1ccc(O)cc1 (stereo partly drawn) on N. gonorrhoeae WHO Q; MIC returned: > 64 µg/mL

Query NS(=O)(=O)NC(C(=O)N[C@H]1Cc2cccc(C(=O)O)c2OB1O)c1ccc(P(=O)(O)O)cc1 (stereo partly drawn) on N. gonorrhoeae WHO Q; MIC returned: 16 to 32 µg/mL

Query O=C(NCCCN1CCN(C(=O)NC(C(=O)N[C@H]2Cc3ccc(F)c(C(=O)O)c3OB2O)c2cc(F)c(O)c(O)c2Cl)C(=O)C1=O)c1ccncc1 (stereo partly drawn) on N. gonorrhoeae WHO Q; MIC returned: 16 to 32 µg/mL

Query O=C(O)c1c(F)ccc2c1OB(O)[C@@H](NC(=O)C(NC(=O)N1CCN(Cc3cc(F)c(O)c(O)c3Cl)C(=O)C1=O)c1ccc(P(=O)(O)O)cc1)C2 (stereo partly drawn) on N. gonorrhoeae WHO Q; MIC returned: 1 to 2 µg/mL

Query `CS(=O)(=O)N1CCC[C@@H]1C(=O)N[C@@H](C(=O)N[C@H]1Cc2cccc(C(=O)O)c2OB1O)c1ccc(P(=O)(O)O)cc1` on N. gonorrhoeae WHO Q; MIC returned: 4 to 8 µg/mL
